# experimental-target: Transient receptor potential cation channel subfamily A member 1 (Homo sapiens)
# protocol-description: Antagonist activity at TRPA1 (unknown origin) expressed in HEK293T cells assessed as inhibition of agonist induced channel current by whole-cell patch clamp analysis
# Format: cell-based
measurement-kind: EC50

[[record]]
compound = "C[n+]1cc2c3c(ccc2c2ccc4cc5c(cc4c21)OCO5)OCO3"
measurement_kind = "EC50"
reported_result = "0.09 µM"


* * *

This section lists IC50 readings for UniProt:O75762.
measurement-kind: IC50 (µM)

[[record]]
compound = "O=C1C[C@@H](c2ccc(O[C@@H]3O[C@H](CO)[C@@H](O)[C@H](O)[C@H]3O)cc2)Oc2cc(O)ccc21"
experimental_target = "UniProt:O75762"
measurement_kind = "IC50"
readout_unit = "µM"
reported_result = 16.2

[[record]]
compound = "O=C(CCc1ccccc1)CC(O)Cc1ccccc1 (configuration not stated)"
experimental_target = "UniProt:O75762"
measurement_kind = "IC50"
readout_unit = "µM"
reported_result = 4.5


* * *

# experimental-target: Transient receptor potential cation channel subfamily A member 1 (Mus musculus, UniProt Q8BLA8)
# Sequence (Q8BLA8 whole entry): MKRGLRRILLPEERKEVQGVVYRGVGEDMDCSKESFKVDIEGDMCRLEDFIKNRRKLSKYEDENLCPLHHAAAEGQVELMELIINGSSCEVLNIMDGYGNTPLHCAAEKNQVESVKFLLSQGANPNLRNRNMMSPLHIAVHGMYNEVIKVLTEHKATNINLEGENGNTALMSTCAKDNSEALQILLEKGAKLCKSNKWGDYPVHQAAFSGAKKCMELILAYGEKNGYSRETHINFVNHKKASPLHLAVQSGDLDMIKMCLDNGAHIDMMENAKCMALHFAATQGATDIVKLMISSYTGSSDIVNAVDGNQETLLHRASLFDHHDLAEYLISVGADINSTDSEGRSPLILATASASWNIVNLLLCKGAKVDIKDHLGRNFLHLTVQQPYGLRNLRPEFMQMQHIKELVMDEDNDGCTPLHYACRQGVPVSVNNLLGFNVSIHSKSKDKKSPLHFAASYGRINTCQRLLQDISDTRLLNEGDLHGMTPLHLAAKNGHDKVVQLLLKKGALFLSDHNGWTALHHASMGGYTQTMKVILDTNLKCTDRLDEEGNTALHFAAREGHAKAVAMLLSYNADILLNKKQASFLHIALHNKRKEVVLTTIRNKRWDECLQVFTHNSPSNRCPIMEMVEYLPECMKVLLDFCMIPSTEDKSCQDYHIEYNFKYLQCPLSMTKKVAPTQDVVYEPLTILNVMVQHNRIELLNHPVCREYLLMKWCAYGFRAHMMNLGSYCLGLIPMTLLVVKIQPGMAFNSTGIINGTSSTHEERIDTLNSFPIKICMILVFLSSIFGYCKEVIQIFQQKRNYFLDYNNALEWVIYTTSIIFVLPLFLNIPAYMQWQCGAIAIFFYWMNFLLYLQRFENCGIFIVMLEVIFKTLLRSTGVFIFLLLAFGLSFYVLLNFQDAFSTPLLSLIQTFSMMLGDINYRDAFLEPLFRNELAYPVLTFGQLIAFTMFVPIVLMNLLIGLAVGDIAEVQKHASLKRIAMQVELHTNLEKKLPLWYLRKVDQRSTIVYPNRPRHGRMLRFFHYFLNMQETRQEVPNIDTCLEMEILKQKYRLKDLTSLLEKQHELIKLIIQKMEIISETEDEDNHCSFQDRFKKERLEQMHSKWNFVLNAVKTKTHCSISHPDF
# protocol-description: Agonist activity at full length mouse TRPA1 transfected in HEK293F cells assessed as increase in Ca2+ influx by FLIPR calcium assay
# Assay type: cell-based
# maps each entry to its EC50
measurement-kind: EC50 (µM)

[[record]]
compound = "O=C(O)CCCCCCCCCO"
measurement_kind = "EC50"
reported_result = 510

[[record]]
compound = "CCC/C=C1\\OC(=O)c2ccccc21 [Z-butylidenephthalide]"
measurement_kind = "EC50"
reported_result = 539

[[record]]
compound = "O=C(O)/C=C/CCCCCCCO"
measurement_kind = "EC50"
reported_result = 422


* * *

# experimental-target: Transient receptor potential cation channel subfamily A member 1 (Homo sapiens, UniProt O75762)
# Sequence (O75762 whole entry): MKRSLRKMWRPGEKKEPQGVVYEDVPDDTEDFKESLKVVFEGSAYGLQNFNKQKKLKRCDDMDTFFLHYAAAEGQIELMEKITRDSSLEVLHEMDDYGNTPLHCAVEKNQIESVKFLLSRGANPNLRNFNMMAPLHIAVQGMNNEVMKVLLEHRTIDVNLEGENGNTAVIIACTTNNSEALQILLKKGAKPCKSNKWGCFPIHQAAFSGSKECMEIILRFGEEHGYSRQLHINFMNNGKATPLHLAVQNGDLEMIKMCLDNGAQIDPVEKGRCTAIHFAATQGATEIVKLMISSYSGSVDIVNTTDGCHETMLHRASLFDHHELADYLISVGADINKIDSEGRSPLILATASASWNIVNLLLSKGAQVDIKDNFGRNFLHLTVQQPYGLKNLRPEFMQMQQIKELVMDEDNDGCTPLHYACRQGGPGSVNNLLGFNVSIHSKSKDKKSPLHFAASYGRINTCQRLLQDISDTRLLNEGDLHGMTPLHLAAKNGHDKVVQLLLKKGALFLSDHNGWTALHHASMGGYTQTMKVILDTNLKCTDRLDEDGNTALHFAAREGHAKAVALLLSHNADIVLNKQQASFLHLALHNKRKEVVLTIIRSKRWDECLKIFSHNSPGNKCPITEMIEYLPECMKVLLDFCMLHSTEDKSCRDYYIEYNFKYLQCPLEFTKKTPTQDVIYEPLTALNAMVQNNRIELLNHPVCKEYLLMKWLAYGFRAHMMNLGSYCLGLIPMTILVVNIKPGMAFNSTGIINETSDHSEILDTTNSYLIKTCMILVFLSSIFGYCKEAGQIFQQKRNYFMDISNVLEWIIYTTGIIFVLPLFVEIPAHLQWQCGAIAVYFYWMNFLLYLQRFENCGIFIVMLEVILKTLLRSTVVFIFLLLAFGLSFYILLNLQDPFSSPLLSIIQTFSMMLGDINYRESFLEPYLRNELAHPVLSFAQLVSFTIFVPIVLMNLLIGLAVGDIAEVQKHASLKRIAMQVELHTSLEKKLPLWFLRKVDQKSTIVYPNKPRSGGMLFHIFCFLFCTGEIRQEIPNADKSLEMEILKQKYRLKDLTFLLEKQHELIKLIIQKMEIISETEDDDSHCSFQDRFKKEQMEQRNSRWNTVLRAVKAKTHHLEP
# protocol-description: Antagonist activity at human recombinant TRPA1 transfected in HEK293T cells assessed as increase in Ca2+ influx by FLIPR calcium assay
# Format: cell-based
pEC50: −log10 of the molar value.
measurement-kind: pEC50

[[record]]
compound = "O=NN1[C@@H]2c3ccccc3[C@H]1[C@@H](C(F)(F)F)C2C(F)(F)F (stereo partly specified)"
reported_result = 5.25


* * *

# experimental-target: Transient receptor potential cation channel subfamily A member 1 (Rattus norvegicus)
# Sequence (Q6RI86 whole entry): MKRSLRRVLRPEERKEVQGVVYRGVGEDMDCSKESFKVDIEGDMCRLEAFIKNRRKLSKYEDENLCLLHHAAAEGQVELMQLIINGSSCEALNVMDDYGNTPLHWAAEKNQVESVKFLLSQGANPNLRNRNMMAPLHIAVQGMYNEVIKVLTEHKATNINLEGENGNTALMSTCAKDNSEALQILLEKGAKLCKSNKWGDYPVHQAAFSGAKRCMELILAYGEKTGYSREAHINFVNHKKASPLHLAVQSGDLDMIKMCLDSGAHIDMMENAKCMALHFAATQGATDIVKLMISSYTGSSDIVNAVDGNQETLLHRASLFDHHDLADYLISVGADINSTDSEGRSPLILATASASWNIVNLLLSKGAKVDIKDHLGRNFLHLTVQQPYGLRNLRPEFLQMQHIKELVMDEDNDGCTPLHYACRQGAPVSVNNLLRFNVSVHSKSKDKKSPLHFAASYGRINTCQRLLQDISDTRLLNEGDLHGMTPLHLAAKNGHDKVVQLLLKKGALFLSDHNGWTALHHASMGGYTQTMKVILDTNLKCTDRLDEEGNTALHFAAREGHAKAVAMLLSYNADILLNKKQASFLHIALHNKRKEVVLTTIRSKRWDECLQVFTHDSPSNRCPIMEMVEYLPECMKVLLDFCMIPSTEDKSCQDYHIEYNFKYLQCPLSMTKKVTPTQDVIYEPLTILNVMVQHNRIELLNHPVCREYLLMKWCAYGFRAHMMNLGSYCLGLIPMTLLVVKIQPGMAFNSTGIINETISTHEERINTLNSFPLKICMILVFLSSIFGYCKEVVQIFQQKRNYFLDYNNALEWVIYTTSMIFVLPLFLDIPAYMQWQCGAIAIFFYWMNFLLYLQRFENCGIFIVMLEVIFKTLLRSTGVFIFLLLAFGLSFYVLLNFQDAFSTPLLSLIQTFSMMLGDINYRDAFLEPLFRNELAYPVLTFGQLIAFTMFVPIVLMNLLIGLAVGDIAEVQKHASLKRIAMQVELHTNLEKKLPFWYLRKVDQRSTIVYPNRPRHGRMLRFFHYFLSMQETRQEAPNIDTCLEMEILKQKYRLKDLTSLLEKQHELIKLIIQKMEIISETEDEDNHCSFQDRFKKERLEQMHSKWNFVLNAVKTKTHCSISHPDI
# protocol-description: Agonist activity at rat recombinant TRPA1 expressed in HEK293 cells assessed as increase in intracellular calcium accumulation by Fluo4-AM based assay
# Assay type: cell-based
measurement-kind: IC50

[[record]]
compound = "CC(C)CN1C(=O)/C(=C/C(=O)O)c2cccc(F)c21"
reported_result = "510 nM"


* * *

# experimental-target: UniProt:O75762
# protocol-description: Agonist activity at TRPA1 (unknown origin)
pEC50: −log10 of the molar value.
measurement-kind: pEC50

[[record]]
compound = "COCCCN(C(=O)CCl)c1nc(-c2ccc(OC)cc2)cs1"
experimental_target = "UniProt:O75762"
reported_result = 9.19


* * *

# experimental-target: Transient receptor potential cation channel subfamily A member 1 (Mus musculus, UniProt Q8BLA8)
# protocol-description: Antagonist activity at mouse TRPA1 expressed in HEK293F cells as increase in Ca2+ influx by FLIPR calcium assay
# Format: cell-based
pEC50: −log10 of the molar value.
measurement-kind: pEC50

[[record]]
compound = "CCC/C=C1\\OC(=O)C2=C1CCC=C2 [LIGUSTILIDE]"
reported_result = 4.36

